molecular target: T1, human chemokine (C-C motif) receptor 8 (CCR8) (human, UniProt P51685 1-355); assay: flow cytometry blocking, PBMC CCR8+ CD4+ cells; competitor PE-AB13 (its MFI is read)
T1 construct: On human peripheral blood lymphocytes / PBMC (native) or on human CCR8 GFP-transfected Ba/F3 cells; also called hCCR8; human CCR8
T1 sequence (P51685 whole entry): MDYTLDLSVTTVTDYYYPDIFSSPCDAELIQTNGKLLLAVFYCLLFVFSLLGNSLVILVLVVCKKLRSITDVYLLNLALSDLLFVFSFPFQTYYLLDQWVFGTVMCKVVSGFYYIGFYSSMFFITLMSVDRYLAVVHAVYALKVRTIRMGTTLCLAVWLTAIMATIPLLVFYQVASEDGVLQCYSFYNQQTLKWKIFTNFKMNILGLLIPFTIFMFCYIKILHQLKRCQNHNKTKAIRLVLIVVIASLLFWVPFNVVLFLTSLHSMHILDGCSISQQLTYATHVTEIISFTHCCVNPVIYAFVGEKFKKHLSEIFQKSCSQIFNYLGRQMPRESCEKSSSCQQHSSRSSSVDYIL
Listed next: entries and their corresponding % Blocking.
measured_attribute: % Blocking (%)

INSERT INTO measurements (binder, value_units, measured_result) VALUES
  ('AB10 (antibody, V domains shown, Hybridoma monoclonal; also called antibody 10; clone 10) VH: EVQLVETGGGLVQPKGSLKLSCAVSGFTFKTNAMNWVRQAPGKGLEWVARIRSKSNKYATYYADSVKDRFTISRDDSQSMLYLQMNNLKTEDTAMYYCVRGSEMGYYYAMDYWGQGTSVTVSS VL: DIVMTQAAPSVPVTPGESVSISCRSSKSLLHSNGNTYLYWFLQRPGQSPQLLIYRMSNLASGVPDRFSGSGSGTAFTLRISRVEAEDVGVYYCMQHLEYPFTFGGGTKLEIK', '%', 2.16),
  ('AB5 (antibody, V domains shown, Hybridoma monoclonal; also called antibody 5; clone 5) VH: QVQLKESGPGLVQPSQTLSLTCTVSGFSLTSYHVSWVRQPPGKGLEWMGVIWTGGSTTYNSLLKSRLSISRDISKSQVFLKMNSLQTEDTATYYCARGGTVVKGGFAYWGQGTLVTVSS VL: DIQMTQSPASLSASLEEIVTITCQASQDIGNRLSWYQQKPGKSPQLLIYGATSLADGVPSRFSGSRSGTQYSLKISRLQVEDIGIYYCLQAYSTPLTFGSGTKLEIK', '%', -5.77),
  ('AB4 (antibody, V domains shown, Hybridoma monoclonal; also called antibody 4; clone 4) VH: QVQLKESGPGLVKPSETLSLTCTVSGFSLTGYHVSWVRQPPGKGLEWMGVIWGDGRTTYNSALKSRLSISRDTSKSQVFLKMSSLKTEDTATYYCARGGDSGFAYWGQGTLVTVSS VL: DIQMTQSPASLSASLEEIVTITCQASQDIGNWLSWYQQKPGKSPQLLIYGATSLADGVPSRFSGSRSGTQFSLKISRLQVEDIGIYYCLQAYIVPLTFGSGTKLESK', '%', -3.67),
  ('AB12 (antibody, V domains shown, Hybridoma monoclonal; also called antibody 12; clone 12) VH: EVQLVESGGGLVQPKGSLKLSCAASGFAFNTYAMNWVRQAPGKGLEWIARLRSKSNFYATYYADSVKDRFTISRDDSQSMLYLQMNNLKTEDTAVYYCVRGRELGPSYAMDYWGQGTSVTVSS VL: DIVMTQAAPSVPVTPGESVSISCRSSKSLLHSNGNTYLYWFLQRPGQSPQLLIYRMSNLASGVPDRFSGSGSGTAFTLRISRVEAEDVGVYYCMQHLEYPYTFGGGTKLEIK', '%', 14.2),
  ('AB11 (antibody, V domains shown, Hybridoma monoclonal; also called antibody 11; clone 11) VH: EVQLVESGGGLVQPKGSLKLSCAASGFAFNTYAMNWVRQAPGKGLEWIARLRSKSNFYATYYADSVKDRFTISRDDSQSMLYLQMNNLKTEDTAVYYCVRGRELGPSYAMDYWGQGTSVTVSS VL: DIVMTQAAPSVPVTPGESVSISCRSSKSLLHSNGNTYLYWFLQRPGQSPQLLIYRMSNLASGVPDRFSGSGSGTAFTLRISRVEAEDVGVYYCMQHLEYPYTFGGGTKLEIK', '%', 7.44);
